Record form. Attribute: pEC50. Fill in for each entry.
biological target: Induced myeloid leukemia cell differentiation protein Mcl-1 (Homo sapiens); test: Inhibition of MCL-1 in human MOLP8 cells assessed as increase in caspase 3/7 activation
Sequence (Q07820 whole entry): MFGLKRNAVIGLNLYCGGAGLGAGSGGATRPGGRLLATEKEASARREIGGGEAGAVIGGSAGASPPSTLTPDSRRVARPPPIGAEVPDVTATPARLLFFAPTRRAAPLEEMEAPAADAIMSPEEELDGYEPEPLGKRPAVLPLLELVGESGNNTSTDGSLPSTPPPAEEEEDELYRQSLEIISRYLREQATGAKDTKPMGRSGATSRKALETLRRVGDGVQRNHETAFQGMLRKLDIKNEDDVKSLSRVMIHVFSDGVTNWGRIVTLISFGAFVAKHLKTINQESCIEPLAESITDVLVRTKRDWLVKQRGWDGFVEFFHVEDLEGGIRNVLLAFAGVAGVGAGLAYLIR
pEC50 here is simply -log10 of the concentration when that concentration is written in mol/L.

Form field pEC50, entry Cc1c(-c2cccc3c(CCCOc4cccc5ccccc45)c(C(=O)O)n(C)c23)c(COc2ccc(B(O)O)c(C=O)c2)nn1C : 7.12

Form field pEC50, entry Cc1c(-c2cccc3c(CCCOc4cccc5ccccc45)c(C(=O)O)[nH]c23)c(COc2ccc(B(O)O)c(C=O)c2)nn1C : 6.34

Form field pEC50, entry CCc1nn(C)c(CC)c1-c1cccc2c(CCCOc3cccc4ccccc34)c(C(=O)O)n(CCN3CCOCC3)c12 : 6.47

Form field pEC50, entry CC(=O)c1cccc(OCc2nn(C)c(C)c2-c2cccc3c(CCCOc4cccc5ccccc45)c(C(=O)O)[nH]c23)c1 : 5.57

Form field pEC50, entry CC(=O)c1cc(OCc2nn(C)c(C)c2-c2cccc3c(CCCOc4cccc5ccccc45)c(C(=O)O)[nH]c23)ccc1B(O)O : 5.93

* * *

target: Induced myeloid leukemia cell differentiation protein Mcl-1 (Homo sapiens); experiment: Inhibition of MCL-1 in human MOLP8 cells assessed as increase in caspase 3/7 activation
pEC50: −log10 of the molar value.
Record form. Attribute: pEC50. Fill in for each entry.

Form field pEC50, entry Cc1c(-c2cccc3c(CCCOc4cccc5ccccc45)c(C(=O)O)[nH]c23)c(COc2ccccc2)nn1C : < 4.96

Form field pEC50, entry Cc1c(-c2cccc3c(CCCOc4cccc5ccccc45)c(C(=O)O)[nH]c23)c(COc2cccc(C=O)c2)nn1C : < 4.96

Form field pEC50, entry Cc1c(-c2cccc3c(CCCOc4cccc5ccccc45)c(C(=O)O)[nH]c23)c(COc2ccc(B(O)O)cc2)nn1C : < 4.96

src = ChEMBL document CHEMBL5223124
